Hello, the source for this data is patent US20250361268A1, in case you need it.

Exercise: for every item that follows, state its recorded pEC50.
Molecular target: FPR2 (Homo sapiens)
Assay: Change in calcium activity by peptide (Fura-2) in RBL cells overexpressing FPR2
Conditions: calcium activity (Fura-2), graded per Table 3, read-out: EC50 for [Ca^2+] FPR2
pEC50: −log10 of the molar value. Peptide text beside a SMILES is read from it.

Please fill in: pEC50 reported for CSCC[C@H](NC(=O)[C@H](CCCNC(=N)N)NC(C)=O)C(=O)N[C@@H](CCCNC(=N)N)C(=O)N[C@@H](Cc1ccc(O)cc1)C(=O)N[C@@H](Cc1ccc(O)cc1)C(=O)N[C@H](C(=O)N[C@H](CCSC)C(N)=O)C(C)C [Peptide 98] (HELM PEPTIDE1{[ac].R.M.R.Y.Y.V.[dM].[am]}$$$$V2.0) = > 8.00

Please fill in: pEC50 reported for CSCC[C@@H](NC(=O)[C@@H](NC(=O)[C@H](CCCCN)NC(=O)[C@H](Cc1ccc(O)cc1)NC(=O)[C@H](CCCCN)NC(=O)[C@@H]1CCCN1C(C)=O)C(C)C)C(N)=O [Peptide 139] (HELM PEPTIDE1{[ac].P.K.Y.K.V.[dM].[am]}$$$$V2.0) = > 8.00

----------
Exercise: for every item that follows, state its recorded EC50.
Target: UniProt:P25090
Sequence (P25090 1-351): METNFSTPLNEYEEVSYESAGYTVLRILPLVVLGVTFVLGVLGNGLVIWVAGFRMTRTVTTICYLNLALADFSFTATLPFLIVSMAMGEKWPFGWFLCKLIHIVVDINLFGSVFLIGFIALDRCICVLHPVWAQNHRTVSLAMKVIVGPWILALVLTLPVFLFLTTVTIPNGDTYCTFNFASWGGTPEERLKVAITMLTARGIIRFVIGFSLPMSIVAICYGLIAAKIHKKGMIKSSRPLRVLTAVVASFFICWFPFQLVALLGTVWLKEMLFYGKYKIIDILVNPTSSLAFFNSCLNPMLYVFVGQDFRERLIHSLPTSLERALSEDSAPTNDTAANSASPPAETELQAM
Assay: Change in calcium activity by peptide (Fura-2) in RBL cells overexpressing FPR2
Conditions: calcium activity (Fura-2), graded per Table 3, read-out: EC50 for [Ca^2+] FPR2
Peptide text beside a SMILES is read from it.

Please fill in: EC50 reported for CC[C@H](C)[C@H](N)C(=O)N[C@@H](CCCCN)C(=O)N[C@@H](Cc1ccc(O)cc1)C(=O)N[C@@H](CCCCN)C(=O)N[C@H](C(=O)N[C@H](CCSC)C(N)=O)C(C)C [Peptide 134] (HELM PEPTIDE1{I.K.Y.K.V.[dM].[am]}$$$$V2.0) = < 10 nM

Please fill in: EC50 reported for CSCC[C@@H](NC(=O)[C@H](Cc1ccc(O)cc1)NC(=O)[C@H](Cc1ccccc1)NC(=O)[C@H](Cc1ccc(O)cc1)NC(=O)[C@H](CCCNC(=N)N)NC(=O)[C@H](Cc1c[nH]c2ccccc12)NC(=O)[C@@H](N)CCCNC(=N)N)C(N)=O [Peptide 156] (HELM PEPTIDE1{R.W.R.Y.F.Y.[dM].[am]}$$$$V2.0) = < 10 nM

Please fill in: EC50 reported for CSCC[C@H](N)C(=O)N[C@@H](CCCNC(=N)N)C(=O)N[C@@H](Cc1ccc(O)cc1)C(=O)N[C@@H](Cc1ccc(O)cc1)C(=O)N[C@H](C(=O)N[C@H](CCSC)C(N)=O)C(C)C [Peptide 100] (HELM PEPTIDE1{M.R.Y.Y.V.[dM].[am]}$$$$V2.0) = < 10 nM

Please fill in: EC50 reported for CCCC(=O)N[C@@H](CCCCN)C(=O)N[C@@H](CCSC)C(=O)N[C@@H](CCCCN)C(=O)N[C@@H](Cc1ccc(O)cc1)C(=O)N[C@@H](CCCCN)C(=O)N[C@H](C(=O)N[C@H](CCSC)C(N)=O)C(C)C [Peptide 11] (HELM PEPTIDE1{[CCCC(=O)[*:2]].K.M.K.Y.K.V.[dM].[am]}$$$$V2.0) = < 10 nM

Please fill in: EC50 reported for CC[C@H](C)[C@H](N)C(=O)N[C@@H](CCCCN)C(=O)N[C@@H](Cc1ccccc1)C(=O)N[C@@H](Cc1c[nH]c2ccccc12)C(=O)N[C@@H](Cc1ccc(O)cc1)C(=O)N[C@H](CCSC)C(N)=O [Peptide 128] (HELM PEPTIDE1{I.K.F.W.Y.[dM].[am]}$$$$V2.0) = 11 to 100 nM

Please fill in: EC50 reported for CCCCCCCC(=O)N[C@@H](CCSC)C(=O)N[C@@H](CCCNC(=N)N)C(=O)N[C@@H](Cc1ccc(O)cc1)C(=O)N[C@@H](Cc1c[nH]c2ccccc12)C(=O)N[C@@H](Cc1ccc(O)cc1)C(=O)N[C@H](CCSC)C(N)=O [Peptide 88] (HELM PEPTIDE1{[CCCCCCCC(=O)[*:2]].M.R.Y.W.Y.[dM].[am]}$$$$V2.0) = 11 to 100 nM

Please fill in: EC50 reported for CSCC[C@H](NC(=O)[C@H](CCCNC(=N)N)NC(C)=O)C(=O)N[C@@H](CCCNC(=N)N)C(=O)N[C@@H](Cc1ccc(O)cc1)C(=O)N[C@@H](Cc1c[nH]c2ccccc12)C(=O)N1CCC[C@H]1C(=O)N[C@H](CCSC)C(N)=O [Peptide 107] (HELM PEPTIDE1{[ac].R.M.R.Y.W.P.[dM].[am]}$$$$V2.0) = < 10 nM

Please fill in: EC50 reported for CSCC[C@@H](NC(=O)[C@@H](NC(=O)[C@H](Cc1c[nH]c2ccccc12)NC(=O)[C@H](Cc1ccc(O)cc1)NC(=O)[C@H](CCCNC(=N)N)NC(=O)[C@H](Cc1c[nH]c2ccccc12)NC(C)=O)C(C)C)C(N)=O [Peptide 102] (HELM PEPTIDE1{[ac].W.R.Y.W.V.[dM].[am]}$$$$V2.0) = < 10 nM

Please fill in: EC50 reported for CSCC[C@H](NC(=O)[C@@H](N)CCCNC(=N)N)C(=O)N[C@@H](CCCNC(=N)N)C(=O)N[C@@H](Cc1ccc(O)cc1)C(=O)N[C@@H](CCCNC(=N)N)C(=O)N[C@H](C(=O)N[C@H](CCSC)C(N)=O)C(C)C [Peptide 30] (HELM PEPTIDE1{R.M.R.Y.R.V.[dM].[am]}$$$$V2.0) = < 10 nM

Please fill in: EC50 reported for CSCC[C@H](NC(=O)[C@@H](N)CCCNC(=N)N)C(=O)N[C@@H](CCCNC(=N)N)C(=O)N[C@@H](Cc1ccc(O)cc1)C(=O)N[C@@H](Cc1c[nH]c2ccccc12)C(=O)N[C@@H](Cc1ccc(O)cc1)C(=O)N[C@H](CCSC)C(N)=O [Peptide 81] (HELM PEPTIDE1{R.M.R.Y.W.Y.[dM].[am]}$$$$V2.0) = < 10 nM

Please fill in: EC50 reported for CSCC[C@H](NC(=O)[C@H](CCCNC(=N)N)NC(C)=O)C(=O)N[C@@H](CCCNC(=N)N)C(=O)N[C@@H](Cc1ccc(O)cc1)C(=O)N[C@@H](Cc1ccc(O)cc1)C(=O)N1CCC[C@H]1C(=O)N[C@H](CCSC)C(N)=O [Peptide 119] (HELM PEPTIDE1{[ac].R.M.R.Y.Y.P.[dM].[am]}$$$$V2.0) = < 10 nM

Please fill in: EC50 reported for CSCC[C@@H](NC(=O)[C@H](Cc1ccc(O)cc1)NC(=O)[C@H](CC(N)=O)NC(=O)[C@H](Cc1ccc(O)cc1)NC(=O)[C@H](CCCNC(=N)N)NC(=O)[C@H](Cc1c[nH]c2ccccc12)NC(=O)[C@@H](N)CCCNC(=N)N)C(N)=O [Peptide 155] (HELM PEPTIDE1{R.W.R.Y.N.Y.[dM].[am]}$$$$V2.0) = 11 to 100 nM

Please fill in: EC50 reported for CSCC[C@H](NC(=O)[C@@H]1CCCN1)C(=O)N[C@@H](CCCCN)C(=O)N[C@@H](Cc1ccc(O)cc1)C(=O)N[C@@H](CCCCN)C(=O)N[C@H](C(=O)N[C@H](CCSC)C(N)=O)C(C)C [Peptide 25] (HELM PEPTIDE1{P.M.K.Y.K.V.[dM].[am]}$$$$V2.0) = < 10 nM
